Assay: Triptolide plasma toxicokinetics in mice
Type: in vivo
Conditions: mouse, with tariquidar 10 mg/kg iv, 20 min before TP, TP 1.0 mg/kg iv, tariquidar 10 mg/kg iv 20 min prior
Description: For TP plasma kinetic study and toxicological evaluation, mice were divided into four groups (n = 5 each) to collect blood and tissue samples: (1) normal + saline group; (2) 1.0 mg/kg TP + 15 nmol NC-siRNA group; (3) 1.0 mg/kg TP + 15 nmol mdr1a-siRNA group; (4) 1.0 mg/kg TP + 10 mg/kg tariquidar group. […] The concentrations of TP in plasma and liver tissue were measured by a validated LC-MS/MS method. […] The TP in plasma and tissue samples was quantitatively analyzed by a published LC-MS/MS method. […]
endpoint_name: MRT (min)
Report as a plain number; the unit min is understood.

## Task Look at this molecule and give its reported MRT. CC(C)[C@]12O[C@H]1[C@@H]1O[C@]13[C@]1(O[C@H]1C[C@H]1C4=C(CC[C@@]13C)C(=O)OC4)[C@@H]2O [TP, Triptolide]
## Result 30
